All figures here come from ChEMBL document CHEMBL4368904.

Target Under Test: Adenosine receptor A3 (Mus musculus) (UniProt Q61618)
Sequence (Q61618 whole entry): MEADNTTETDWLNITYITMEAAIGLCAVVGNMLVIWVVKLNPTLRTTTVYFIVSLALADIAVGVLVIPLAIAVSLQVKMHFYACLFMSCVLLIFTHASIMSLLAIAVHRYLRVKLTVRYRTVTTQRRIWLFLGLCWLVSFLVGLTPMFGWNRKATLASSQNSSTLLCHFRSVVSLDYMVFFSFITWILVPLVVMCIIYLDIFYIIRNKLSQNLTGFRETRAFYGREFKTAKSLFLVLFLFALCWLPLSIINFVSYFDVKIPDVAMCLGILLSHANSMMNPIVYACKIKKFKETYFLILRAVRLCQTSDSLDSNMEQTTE
Method: Agonist activity at mouse A3AR adenosine receptor at 10 uM after 60 mins by [35S]GTPgammaS binding assay relative to (2S,3S,4R,5R)-5-(6-amino-9H-purin-9-yl)-N-ethyl-3,4-dihydroxytetrahydrofuran-2-carboxamide
Format: functional
Test Readout: Emax (%)
Numeric only. Scale: %

Query Smiles	Emax (%)
NC(=O)c1ncn([C@H]2[C@H](O)[C@H](O)[C@]3(CO)C[C@H]23)n1	31
OC[C@H]1O[C@@H](n2cnc3c(NC(C4CCC4)C4CCC4)nc(Cl)nc32)[C@H](O)[C@@H]1O	63
OC[C@@]12C[C@@H]1[C@@H](n1cnc3c(N[C@H]4C[C@H]5CC[C@@H]4C5)nc(Cl)nc31)[C@H](O)[C@@H]2O	62
OC[C@@]12C[C@@H]1[C@@H](n1cnc3c(NC(C4CCC4)C4CCC4)ncnc31)[C@H](O)[C@@H]2O	92
O[C@H]1[C@H](n2cnc3c(N[C@H]4C[C@H]5CC[C@@H]4C5)nc(Cl)nc32)[C@H]2C[C@@]2(CCl)[C@H]1O	50

In plain terms, OC[C@H]1O[C@@H](n2cnc3c(NC(C4CCC4)C4CCC4)ncnc32)[C@H](O)[C@@H]1O has a documented Emax of 70
